B1: POMT2 (parent)
chain: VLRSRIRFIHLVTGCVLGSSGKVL

Variants of: B1
Experiment: protein stability index of a GFP-peptide fusion (GPS, HEK-293T) (PSI 1-6); higher = more stable;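 note: lentivirally expressed fusions sorted by FACS into six bins by GFP to DsRed ratio, PSI derived from sequencing read proportions per bin multiplied by bin number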
Conditions: c terminus: a fixed tail appended
Each entry below carries its reported protein stability index.
Quick one: just the number, no unit, thanks!

| variant.label | protein stability index |
| --- | --- |
| L24R | 2.92 |

Would you kindly share the measured protein stability index for `G21A` ?
2.99

Given `G21W` , state its recorded protein stability index.
2.96

Param item = `H10P` ; retrieve measured protein stability index.
3.05
